Target: T1, Tyrosine-protein kinase transmembrane receptor ROR1 (Long Isoform), human, on the cell surface (human, UniProt Q01973 30-937)
T1 construct: Endogenous ROR1 on the human cell lines A549, HT29, H69 and HEK293 and on CLL cells from a patient; also called cell-surface human ROR1; full-length ROR1
T1 sequence (Q01973 30-937 limits assumed): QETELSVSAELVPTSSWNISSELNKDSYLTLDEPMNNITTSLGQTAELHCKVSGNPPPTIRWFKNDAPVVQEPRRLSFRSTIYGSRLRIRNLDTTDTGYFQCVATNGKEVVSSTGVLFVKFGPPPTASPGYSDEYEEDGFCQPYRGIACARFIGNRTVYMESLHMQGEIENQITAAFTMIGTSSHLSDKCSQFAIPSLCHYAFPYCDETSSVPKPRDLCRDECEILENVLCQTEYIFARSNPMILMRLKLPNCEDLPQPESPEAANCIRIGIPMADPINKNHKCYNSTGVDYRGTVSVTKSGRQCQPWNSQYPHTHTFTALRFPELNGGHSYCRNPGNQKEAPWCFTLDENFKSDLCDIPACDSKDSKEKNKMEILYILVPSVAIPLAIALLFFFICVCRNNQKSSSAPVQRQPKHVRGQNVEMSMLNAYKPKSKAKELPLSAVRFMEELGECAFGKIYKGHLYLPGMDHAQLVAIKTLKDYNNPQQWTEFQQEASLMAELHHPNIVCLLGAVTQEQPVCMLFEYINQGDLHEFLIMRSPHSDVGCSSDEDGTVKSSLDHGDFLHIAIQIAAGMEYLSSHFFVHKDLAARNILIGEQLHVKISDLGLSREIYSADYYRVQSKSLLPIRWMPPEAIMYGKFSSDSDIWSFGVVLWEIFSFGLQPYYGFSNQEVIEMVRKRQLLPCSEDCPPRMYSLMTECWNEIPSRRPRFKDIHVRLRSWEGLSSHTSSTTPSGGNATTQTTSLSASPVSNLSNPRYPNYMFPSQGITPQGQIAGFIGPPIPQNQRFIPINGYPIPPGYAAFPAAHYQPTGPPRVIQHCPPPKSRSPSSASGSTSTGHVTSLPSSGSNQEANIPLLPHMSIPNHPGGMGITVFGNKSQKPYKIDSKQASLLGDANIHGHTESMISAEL
Experiment: flow cytometry on A549 cells (FIG. 5a)
observed property: binding result

binder	meas value
ROR1_A7 (Fab, V domains shown, The entries are called 'variable region' but as printed hold leader, V domain, constant domain and tag) VH: EVMLVESGGGLVKPGGSLKISCAASGFSFSSYAMSWVRQTPEKSLEWVAAININRGTPYYPDTVKGRFTISRDNAKNTLYLQMSSLRSEDTALYYCVRHRNSNNDYAMDYWGQGTSVTVSS VL: DIVMTQSPSSMYTSLGERVTITCKASQDINSYLSWFQQKPGKSPKTLIYRANRLIDGVPSRFSGSGSGQDYSLTISSLEYEDMGIYYCLQYDEFPFTFGSGTKLEIKR	binds

meta.source: patent US20120282177A1
